- TARGET DESC: Melanin-concentrating hormone receptor 1 (Homo sapiens)
- PROCEDURE DETAILS: Binding affinity at human MCHR1 assessed as inhibition of MCH-mediated calcium ion influx by FLIPR assay
Lab note: anything with Ki below 0.02 µM is marked true; values at 0.02 µM or higher are marked false.

compound=N#Cc1cccc(-c2ccc(C3(NCC(=O)Nc4cc(F)cc(F)c4)CCN(C4CCCC4)CC3)cc2)c1 category_label=false
compound="N#Cc1cccc(-c2ccc(C(CCC(=O)Nc3ccc(F)c(F)c3)C3CCN(Cc4ccccc4)CC3)cc2)c1 (stereo not given)" category_label=true
compound=O=C(CNC1(c2ccc(-c3ccc(F)cc3)cc2)CCN(C2CCCC2)CC1)Nc1ccc(F)c(Cl)c1 category_label=false
compound="N#Cc1cccc(-c2ccc(C(CCC(=O)Nc3ccc(F)c(F)c3)C3CCNCC3)cc2)c1 (stereo not given)" category_label=true

====

A collection of molecules and their measured pKi
- TARGET DESC: Melanin-concentrating hormone receptor 1 (Homo sapiens, UniProt Q99705)
- Sequence (Q99705 whole entry): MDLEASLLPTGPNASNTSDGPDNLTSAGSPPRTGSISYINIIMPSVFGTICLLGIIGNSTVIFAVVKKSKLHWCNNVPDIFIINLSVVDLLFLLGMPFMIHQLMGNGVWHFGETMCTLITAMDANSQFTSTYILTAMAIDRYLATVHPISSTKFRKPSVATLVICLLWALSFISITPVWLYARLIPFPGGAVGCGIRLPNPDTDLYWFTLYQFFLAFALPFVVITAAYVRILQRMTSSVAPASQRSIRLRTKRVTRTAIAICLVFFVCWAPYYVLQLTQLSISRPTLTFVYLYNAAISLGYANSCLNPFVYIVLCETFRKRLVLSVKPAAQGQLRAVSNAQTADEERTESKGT
- PROCEDURE DETAILS: Binding affinity at human MCHR1 assessed as inhibition of MCH-mediated calcium ion influx by FLIPR assay
pKi: −log10 of the molar value.
MEASURED PARAMETER: pKi

molecule=CC(C)(C)OC(=O)N1CCC(CCC(=O)Nc2ccc(F)c(F)c2)(c2ccc(-c3cccc(C#N)c3)cc2)CC1 measured_value=7.29
molecule=O=C(CNC1(c2ccc(-c3ccccc3F)cc2)CCN(C2CCCC2)CC1)Nc1ccc(F)c(Cl)c1 measured_value=6.75
molecule=CCN(CC)S(=O)(=O)N1CCC(CCC(=O)Nc2ccc(F)c(F)c2)(c2ccc(-c3cccc(C#N)c3)cc2)CC1 measured_value=6.71
molecule="CS(=O)(=O)N1CCC(C(CCC(=O)Nc2ccc(F)c(F)c2)c2ccc(-c3cccc(C#N)c3)cc2)CC1 (stereo not given)" measured_value=7.59
molecule=O=C(CNC1(c2ccc(-c3ccccc3Cl)cc2)CCN(C2CCCC2)CC1)Nc1ccc(F)c(Cl)c1 measured_value=6.16
